experiment: In vitro stability in bovine plasma; type: in vitro ADME; details: bovine plasma, STUDY II; plasma pool 2; peptide 0.03 mM, bovine plasma, 37° C., one hr; read-out: In vitro stability (% Inact peptide after 1 hr)
Where no end group is shown, it is not given here.
Parameter remaining at 1 h, 0.03 mM: see the listing below.

{"substance": "YADAIFTNSYRKVLGQLSARKLLQDILNR-NH2 [Leu^27-bGRF(1-29)NH2, reference compound]", "remaining at 1 h, 0.03 mM, %": 46.8}
{"substance": "H-YIDAIFTNSYRKVLAQLSARKLLQDILNR-NH2 [Ile^2,Ala^15,Leu^27-bGRF(1-29)NH2]", "remaining at 1 h, 0.03 mM, %": 80.3}
{"substance": "YLDAIFTNSYRKVLAQLSARKLLQDILNR-NH2 [Leu^2,Ala^15,Leu^27-bGRF(1-29)NH2, reference compound]", "remaining at 1 h, 0.03 mM, %": 86.3}
{"substance": "H-YVDAIFTNSYRKVLAQLSARKLLQDILNR-NH2 [Val^2,Ala^15,Leu^27-bGRF(1-29)NH2]", "remaining at 1 h, 0.03 mM, %": 83.4}

---

test: In vitro stability in bovine plasma; type: in vitro ADME; conditions: plasma, In vitro stability (% Inact peptide after 1 hr)

{"substance": "H-YTDAIFTNSYRKVLAQLSARKLLQDILNR-NH2 [Thr^2,Ala^15,Leu^27-bGRF(1-29)NH2]", "unit.of.measurement": "%", "remaining at 1 h, 0.03 mM": 91.1}
